- System: HOP-62 NSCLC
- assay_explanation: NCI tumour cell line growth inhibition, 48 h; in the data active = GI50 below about 0.43 µM; inactive = the rest
Log the outcome using a class from true (1) = active, false (0) = inactive

The examples below pair each entry with its known result.
compound	label
Nc1ncc2ccc3c(ccn3C3CC(O)C(CO)O3)c2n1 (stereo not drawn)	false (0)
C=CCCCC(=O)CCC(=O)OCC1O[C@@H](O[C@@H]2C(O)[C@@H](OC(C)=O)C(C)O[C@H]2O[C@H](CC=C)CCCCC)C(O)[C@@H](OC(=O)/C(C)=C/C)[C@@H]1OC(=O)/C=C/c1ccccc1 (stereo partly drawn)	true (1)
O=C(Nc1ccc(-n2ccc3c(NC(=O)c4ccccc4)nccc32)cc1)c1cccc(C(F)(F)F)c1	false (0)
O=C(O)[C@@H]1CCCN1Cc1cc2cc3c(cc2c2cc(OCc4ccccc4)ccc12)OCO3	false (0)
O=C(CC1(O)C(=O)N(Cc2ccccc2)c2ccc(Br)cc21)c1ccc(C(=O)NCC2CCC3(CC2)OOC2(CCCCC2)OO3)cc1 (stereo not drawn)	true (1)

Which outcome was entered for the compound `O=C(N/N=C\c1cc(Cl)ccc1O)c1ccncc1` in this test? false (0)

Next up: CC12CC[C@@H]3c4cc5c(cc4CC[C@H]3[C@@H]1CCC2O)oc1cc(F)ccc15 (stereo partly drawn) false (0)

Next up: C[C@@H]1CCC2[C@@H](C)[C@@H](OC3CCC(O)CC3)OC3O[C@@]4(C)CCC1[C@]32OO4 (stereo partly drawn) false (0)

====

- System: K-562 leukemia
- assay_explanation: NCI tumour cell line growth inhibition, 48 h
measured_property: TGI

Guide cases for TGI, answers given:
compound	measured
COc1ccc2c(c1)CC[C@@H]1C2CC[C@]2(C)C(=O)N(CCN3CCCC3)C(=O)CC12 (stereo partly drawn)	70.1 µM
COC(=O)c1ccc([C@H]2c3[nH]c4ccccc4c3C[C@H](C(=O)OC)N2C(=O)CCl)cc1	> 28 µM
CO[C@@H]1[C@H](O)CC[C@]2(CO2)[C@H]1[C@@]1(C)O[C@@H]1CC=C(C)C	> 200 µM
CCOC(=O)C1C=C1C(C)(C)O (stereo not drawn)	> 10 µM

Recorded TGI of `Cc1cc(C)n(-c2nc3ccccc3c(=O)[nH]2)n1` , please. > 100 µM

Next up: Clc1ccc(C2c3ccccc3-c3nc4ccccc4n32)cc1 (stereo not drawn) > 100 µM

Next up: CSC1(C)CC2C(CC1N1CCOCC1)C2(C)C (stereo not drawn) > 100 µM

Next up: COc1ccc(COC(=O)NNC(=O)C2CSC(c3ccccc3)N2C(C)=O)cc1 (stereo not drawn) > 100 µM

====

- System: TK-10 renal
- assay_explanation: NCI tumour cell line growth inhibition, 48 h
measured_property: TGI

Guide cases for TGI, answers given:
compound	TGI
CO[C@@H]1[C@H](O)CC[C@]2(CO2)[C@H]1[C@@]1(C)O[C@@H]1CC=C(C)C	> 200 µM
COC(=O)[C@@H](NC1(c2ccccc2)c2ccccc2-c2ccccc21)[C@H](OC(=O)[C@H]1CCCN1S(=O)(=O)c1ccccc1)C(=O)OC	> 100 µM
N#CCCN1C/C(=C/c2ccccc2)C(=O)/C(=C/c2ccccc2)C1	7.76 µM
COc1cc(C(=O)/C=C/c2cc(-c3cc(OC)c(OC)c(OC)c3)n[nH]2)cc(OC)c1OC	2.8 µM
C=CCCCC(=O)CCC(=O)OCC1O[C@@H](O[C@@H]2C(O)[C@@H](OC(C)=O)C(C)O[C@H]2O[C@H](CC=C)CCCCC)C(O)[C@@H](OC(=O)/C(C)=C/C)[C@@H]1OC(=O)/C=C/c1ccccc1 (some centres undefined)	> 50 µM
C=C1C(=O)C2=C[C@H]1C[C@H](O)C(=O)[C@]1(C)CCCC(C)(C)[C@H]1C[C@H]2O	2.08 µM
CCOC1c2cc(OC)c(OC)cc2-c2ccc3ccccc3c2N1C (centres undefined)	78.3 µM
COc1nc(NC2OCC(O)C(O)C2O)c(NC2OCC(O)C(O)C2O)c(=O)n1C (centres undefined)	> 100 µM

Recorded TGI of NCCOc1ncccc1/C=C1\C2C=CC=CC2C2C=CC(F)=CC12 (centres undefined) , please. 4.31 µM

Next up: O=C1c2ccccc2C2(O)Nc3c(ccc4ccccc34)C12O (centres undefined) > 100 µM

Next up: `Cn1c(=O)n2c(=O)n(C)c(=O)n2c1=O` > 100 µM

Next up: `C=CCN1C(=O)C(=O)N(CC=C)C(=O)C1=O` > 100 µM

Next up: Cc1cccc(N2C(=O)C3c4[nH]c5ccccc5c4C4CCC(C(C)(C)C)CC4C3C2=O)c1C (centres undefined) > 100 µM

Next up: CC(C)=CCc1ccc2[nH]c3c(c2c1)C(=O)C(=O)C(C)=C3C(O)C(C)O (centres undefined) 4.76 µM

Next up: `Cc1c(C(=N)N)oc2ccccc12` > 100 µM

Next up: `CCN(C(=O)N[C@@H](Cc1ccccc1)C(=O)N[C@@H](CC(C)C)C(=O)NC)c1ccccc1` > 100 µM

Next up: `CCCOc1cc2c(cc1O)CC[C@@H]1[C@@H]2CC[C@]2(C)[C@@H](O)CC[C@@H]12` 54.7 µM

Next up: COc1cc(C2CC(C)(N3CCCC3)Oc3cc4c(cc32)OCO4)cc(OC)c1OC (centres undefined) > 64 µM

Next up: `Cc1ccc(-n2c(C)n[nH]c2=O)cc1` > 100 µM
